# Tested on: C. elegans
# Test summary: Three day C. elegans well assay
# Type: in vivo
# Condition info: Caenorhabditis elegans, 72 h; L1 larvae, three days of exposure; read-out: EC50 L1 3D
Observed property: EC50
Please append the unit to your numeric answer.

Smiles input: Fc1cc(Cl)ccc1-c1cnc(-c2cccs2)o1
Experimental system: C. elegans
EC50: 0.4 µg/mL
--
Smiles input: Fc1cc(Br)ccc1-c1noc(-c2ccco2)n1
Experimental system: C. elegans
EC50: 0.4 µg/mL
--
Smiles input: Cc1cc(F)ccc1-c1noc(-c2cccs2)n1
Experimental system: C. elegans
EC50: 0.4 µg/mL
--
Smiles input: Clc1cc(-c2noc(-c3ccco3)n2)ccc1Br
Experimental system: C. elegans
EC50: 0.4 µg/mL
--
Smiles input: Cc1cc(Cl)ccc1-c1noc(-c2ccco2)n1
Experimental system: C. elegans
EC50: 0.4 µg/mL
--
Smiles input: Clc1ccccc1-c1cnc(-c2ccco2)o1
Experimental system: C. elegans
EC50: 1.6 µg/mL
--
Smiles input: Fc1cc(Cl)ccc1-c1noc(-c2cccs2)n1
Experimental system: C. elegans
EC50: 0.4 µg/mL
--
Smiles input: Clc1ccccc1-c1cnc(-c2cccs2)o1
Experimental system: C. elegans
EC50: 1.6 µg/mL
--
Smiles input: Fc1cc(Br)ccc1-c1noc(-c2cccs2)n1
Experimental system: C. elegans
EC50: 0.4 µg/mL
--
Smiles input: Fc1ccc(-c2noc(-c3ccco3)n2)c(F)c1
Experimental system: C. elegans
EC50: 1.6 µg/mL

molecule Cc1cc(Br)ccc1-c1noc(-c2cccs2)n1 , EC50 observed: 0.4 µg/mL

molecule Brc1ccccc1-c1cnc(-c2cccs2)o1 , EC50 observed: 1.6 µg/mL
